Target: Cell division control protein 42 homolog (Homo sapiens)
Assay: inhibition of fluorescent GTP binding to wildtype Cdc42 – biochemical, multiplex bead flow cytometry, Bodipy-FL-GTP, dose response (AID 1334)
Conditions: bead-based flow cytometry, Bodipy-FL-GTP binding to GST-Cdc42; at 100 µM (top of the series) unless noted
Entries with a potency or affinity are not part of this list.
Quick rule for you: fluorescence, percent of control (lower = inhibition) under 40% gets met, anything else gets not met.

>>> print(df.to_string())
                                   compound                            targetorsystem  labelvalue
0  O=C(Nc1cccc(-c2nc3ncccc3o2)c1)c1sc2ccccc2c1Cl  Cell division control protein 42 homolog (Homo sapiens)     not met
1     O=C(Nc1cccc(-c2ccc3nncn3n2)c1)c1ccco1  Cell division control protein 42 homolog (Homo sapiens)         met
2    O=C(C#Cc1cccc([N+](=O)[O-])c1)c1ccccc1  Cell division control protein 42 homolog (Homo sapiens)         met
3  O=C(CNC(=O)Cc1ccccc1)N=Nc1c(O)n(Cc2ccc3c(c2)OCO3)c2ccccc12  Cell division control protein 42 homolog (Homo sapiens)         met
4     Cc1ccc(Nc2cc(C(=O)O)c3ccccc3n2)c(C)c1  Cell division control protein 42 homolog (Homo sapiens)     not met

hey, is fluorescence, percent of control (lower = inhibition) for Cc1ccc(OCc2ccc(C(=O)O)o2)cc1C lower than 40% or not?
not met

hey, is fluorescence, percent of control (lower = inhibition) for Cc1cc(C)c2sc(N(CCN(C)C)C(=O)c3cc(Cl)sc3Cl)nc2c1 lower than 40% or not?
met

hey, is fluorescence, percent of control (lower = inhibition) for Cc1cc(C)n2nc(C(=O)N3CCCC(CNS(=O)(=O)c4cccs4)C3)cc2n1 (centres undefined) lower than 40% or not?
met

hey, is fluorescence, percent of control (lower = inhibition) for Cc1ccn2c(NCc3ccc4c(c3)OCO4)c(-c3ccc(O)cc3)nc2c1 lower than 40% or not?
not met

hey, is fluorescence, percent of control (lower = inhibition) for CCN(CC)c1ccc(/C=C/C(=O)c2ccc(Br)cc2)cc1 lower than 40% or not?
not met

hey, is fluorescence, percent of control (lower = inhibition) for CCOC(=O)c1c(-c2ccc(C)cc2)csc1NC(=O)/C(C#N)=C/c1ccc(O)c(OC)c1 lower than 40% or not?
not met

hey, is fluorescence, percent of control (lower = inhibition) for CCOc1cccc(Nc2cc3n(c(=O)n2)CCc2cc(OC)c(OC)cc2-3)c1 lower than 40% or not?
met

* * *

Target: GTPase HRas (Homo sapiens)
Assay: Ras wt fluorescent GTP loading blockade – biochemical, wildtype, multiplex bead flow cytometry, dose response (AID 1335)
Conditions: bead-based flow cytometry, Bodipy-GTP binding to GST-Ras; at 100 µM (top of the series) unless noted
Listing: GTP binding, percent of control of selected compounds
State the answer as a number, implicitly in %.

Consider the reported GTP binding, percent of control for these compounds:
                                   compound              targetorsystem  assayresult
0              Cn1c(=O)cc(N2CCOCC2)[nH]c1=O  GTPase HRas (Homo sapiens)         84.8
1  O=C(CN1C(=O)C2C3c4ccccc4C(c4ccccc43)C2C1=O)Nc1cccc(C(=O)O)c1 (stereo not drawn)  GTPase HRas (Homo sapiens)         58.8
2  CCOC(=O)Cn1nnnc1CN(Cc1cccs1)Cc1cc2cc(C)ccc2[nH]c1=O  GTPase HRas (Homo sapiens)          178
3  OC(CNCCC1C=Nc2ccccc21)Cn1c2ccc(Cl)cc2c2cc(Cl)ccc21 (stereo not drawn)  GTPase HRas (Homo sapiens)         67.9

Look up GTP binding, percent of control for this compound: COc1cc(/C=N/NC(=O)CSc2n[nH]c(=O)[nH]c2=O)cc(OC)c1O
78.9

* * *

Target: ATP-binding cassette sub-family B member 6 (Homo sapiens)
Assay: blockers of ABCB6-driven porphyrin uptake – K562-ABCB6 cells, flow cytometry, validation set, pilot screen (AID 588550);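 further: 0% = DMSO wells and 100% = benzethonium chloride 70 µM positive control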
Details: K562-ABCB6 porphyrin accumulation, 1 h, at 10 µM, stronger effect = higher value
metricName: inhibition (%)
State the answer as a number, implicitly in %.

>>> print(df.to_string())
                                   compound  assayresult
0  C/C(=N\NC(=O)c1ccccc1[N+](=O)[O-])c1ccc(Br)s1          -10
1          Cc1ccnc(NS(=O)(=O)c2ccc(N)cc2)n1           -3

Look up inhibition for this compound: Cc1ccc(N2C(=O)c3ccccc3C2=O)cc1C
0

Look up inhibition for this compound: CCN(CC)CCNC(=O)c1ccc(N)cc1
21

Look up inhibition for this compound: Cc1ccc2c(c1)c1c3n2CCCN(Cc2ccccc2)C3CCC1 (stereo unspecified)
6

Look up inhibition for this compound: CCN(CCCCOC(=O)c1ccc(OC)c(OC)c1)C(C)Cc1ccc(OC)cc1 (stereo unspecified)
6

Look up inhibition for this compound: COC(=O)c1cc(COc2ccc3ccc(=O)oc3c2)c(C)o1
12

Look up inhibition for this compound: COc1ccc(C2=C(CN(C)C)C(c3ccccc3)c3ccccc3O2)cc1 (stereo unspecified)
7

Look up inhibition for this compound: N/C(=N\OC(=O)CCCOc1ccc(Cl)cc1Cl)c1ccccn1
7

Look up inhibition for this compound: O=c1cnn([C@@H]2O[C@H](CO)[C@@H](O)[C@H]2O)c(=O)[nH]1
0

Look up inhibition for this compound: CCCCC[C@H](O)/C=C/C1=C(CCCCCCC(=O)O)C(=O)CC1
3

Look up inhibition for this compound: CCOC(=O)C1=C(C)N[C@@]2(O)c3ccccc3C(=O)[C@@]12O
6

Look up inhibition for this compound: O=C(O)c1ccc(N2C(=O)/C(=C\c3ccccc3)N=C2c2ccccc2)cc1
-15

Look up inhibition for this compound: CC[C@H]1CN2CCc3cc(OC)c(OC)cc3[C@@H]2C[C@@H]1C[C@H]1NCCc2cc(OC)c(OC)cc21
-66

Look up inhibition for this compound: COc1ccc(C(=O)Oc2ccc3c(C)cc(=O)oc3c2C(C)=O)cc1
14

Look up inhibition for this compound: O=C(CN1C(=O)C2CCc3[nH]c4ccccc4c3C2C1=O)N1CCCC1 (stereo unspecified)
9

* * *

Listing: aptamer binding inhibition of selected compounds
Biological target: Beta-adrenergic receptor kinase 1 (Homo sapiens) (UniProt P25098)
Sequence (P25098 whole entry, looked up): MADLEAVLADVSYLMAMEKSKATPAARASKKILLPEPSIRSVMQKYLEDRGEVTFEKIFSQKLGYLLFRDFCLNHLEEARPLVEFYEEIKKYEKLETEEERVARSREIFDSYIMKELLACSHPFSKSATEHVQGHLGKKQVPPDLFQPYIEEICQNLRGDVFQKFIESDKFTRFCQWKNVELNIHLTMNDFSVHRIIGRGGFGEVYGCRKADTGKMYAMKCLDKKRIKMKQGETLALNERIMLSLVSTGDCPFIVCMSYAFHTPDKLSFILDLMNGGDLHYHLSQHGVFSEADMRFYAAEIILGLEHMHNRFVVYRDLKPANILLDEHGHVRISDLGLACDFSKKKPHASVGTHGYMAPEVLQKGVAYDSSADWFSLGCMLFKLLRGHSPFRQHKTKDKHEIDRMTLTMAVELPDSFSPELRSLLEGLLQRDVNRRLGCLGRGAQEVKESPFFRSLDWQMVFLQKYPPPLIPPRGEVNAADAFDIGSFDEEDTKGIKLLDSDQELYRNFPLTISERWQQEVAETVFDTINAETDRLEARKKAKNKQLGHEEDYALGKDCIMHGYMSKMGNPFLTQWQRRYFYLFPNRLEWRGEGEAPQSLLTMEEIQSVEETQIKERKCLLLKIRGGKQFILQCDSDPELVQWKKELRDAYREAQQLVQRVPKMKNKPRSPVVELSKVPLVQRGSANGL
Experiment: GRK2 binders displacing RNA aptamer, biochemical, validation, human GRK2, bead flow cytometry (AID 488806)
Conditions: bead-bound GRK2, FAM-aptamer displacement, at 10 µM, stronger effect = higher value
State the answer as a number, implicitly in %.

>>> df
                compound                            targetorsystem  unitssymbol  assayresult
0  Cn1c(=S)n(C)c2ccccc21  Beta-adrenergic receptor kinase 1 (Homo sapiens) (UniProt P25098)            %            3

Look up aptamer binding inhibition for this compound: CC12COC3(C(=O)Nc4ccc(F)cc4)CC1CCC32C (configuration not stated)
1

Look up aptamer binding inhibition for this compound: CCc1cc(/C(Cc2ccccn2)=N\O)c(O)cc1O
3

* * *

Biological target: Beta-2 adrenergic receptor (Homo sapiens)
Assay: agonist-induced loss of surface beta2AR – cell-based, FAP fluorogen, flow cytometry, validation set, pilot screen (AID 504459);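 further: agonist-driven loss of surface beta2AR via internalization measured by FAP dye flow cytometry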
Settings: Am2.2-beta2AR cells, at 10 µM, stronger effect = higher value
Listing: response of selected compounds
State the answer as a number, implicitly in %.

Consider the reported response for these compounds:
In [3]: df
Out[3]:
                                   compound  unitssymbol  assayresult
0                O=C(O)Cc1ccc(-c2ccccc2)cc1            %         2.38
1           CCCCN(CCCC)CCCOC(=O)c1ccc(N)cc1            %        -0.26
2  CC(=O)OCC(=O)[C@@]1(O)CC[C@H]2[C@@H]3CCC4=CC(=O)C=C[C@]4(C)[C@H]3[C@@H](O)C[C@@]21C            %            4

Look up response for this compound: CCCCC[C@H](O)/C=C/C1=C(CCCCCCC(=O)O)C(=O)CC1
2.65

Look up response for this compound: COC(=O)c1ccc(C(=O)OC)c(NC(=O)C(C)C)c1
-13.3

Look up response for this compound: CC1(C)CC(NC(=O)C23CCC(C)(C(=O)C2=O)C3(C)C)CC(C)(C)N1 (centres undefined)
-4.74

Look up response for this compound: CN(C)CCCN1c2ccccc2CCc2ccccc21
2.45

Look up response for this compound: CCc1oc2ccccc2c1C(=O)c1cc(Br)c(O)c(Br)c1
2.6

Look up response for this compound: COc1ccc(NC(=S)N2CCN(CCN3C(=O)c4cccc5cccc(c45)C3=O)CC2)cc1
-4.94

Look up response for this compound: N#Cc1cc2c([nH]c1=O)CCCC2
-10.3

Look up response for this compound: Cc1ccc(C(=O)O)cc1NC(=O)c1cccs1
4.14

Look up response for this compound: Cc1nc2c(c3c1[nH]c1ccccc13)C(=O)CC(C)(C)C2
31.6
